assay: Solubility of agrochemical active ingredient in oil comprising ionic liquid; format: physicochemical; conditions: organic solvent or mixture, thermodynamic from solid; 21° C.; 100 IL (no oil); IL Tetrabutylammonium [2-(2-methoxyethoxy)ethoxy]acetate; read-out: Solubility of fluxapyroxad with Agnique AMD 12 ® (N,N-dimethyldodecanamide, lauryl N,N-dimethylamide) as oil
measurement-label: solubility (µg/mL)

| mol-smiles | endpoint-unit | value-reported |
| --- | --- | --- |
| Cn1cc(C(=O)Nc2ccccc2-c2cc(F)c(F)c(F)c2)c(C(F)F)n1 | µg/mL | 9500 |

====

assay: Solubility of agrochemical active ingredient in oil comprising ionic liquid; assay type: physicochemical; conditions: Cetiol B oil comprising ionic liquid, 21 °C, oil or lipid, thermodynamic from solid, 21° C.; Oil/IL 60/40 weight ratio; IL Tetrabutylammonium [2-(2-methoxyethoxy)ethoxy]acetate; read-out: Solubility of fluxapyroxad with Cetiol ® B as oil

| mol-smiles | solubility |
| --- | --- |
| Cn1cc(C(=O)Nc2ccccc2-c2cc(F)c(F)c(F)c2)c(C(F)F)n1 | 40.8 mg/mL |
